# Test system: Escherichia coli TOP10
# Measurement Notes: shrunken log2 fold change of peptide-encoding DNA abundance (4.5 h post-induction vs induction); higher = less antimicrobial activity (less host growth inhibition)
# Experimental Context: time post-induction: 4.5 h; library: site-saturation at positions 5, 18, 19, 20
Below, each of the sequences is paired with its reported shrunken log2 fold change value.

Query Sequence | shrunken log2 fold change
RRIRRRPPRLPRPRPRPVEEPRP | 0.105
RRIRVRPPRLPRPRPRPAFSPRP | 0.104
RRIRARPPRLPRPRPRPITDPRP | -0.0703
RRIRDRPPRLPRPRPRPAWPPRP | 0.815
RRIRERPPRLPRPRPRPSLMPRP | -0.459
RRIRYRPPRLPRPRPRPSSNPRP | -0.634
RRIRQRPPRLPRPRPRPWAAPRP | 0.0922
RRIRHRPPRLPRPRPRPPMTPRP | -0.175
RRIRDRPPRLPRPRPRPNFTPRP | -0.0368
RRIRLRPPRLPRPRPRPYCDPRP | -0.328
RRIRARPPRLPRPRPRPMVKPRP | -0.00629
RRIRARPPRLPRPRPRPLYFPRP | -0.282
RRIRWRPPRLPRPRPRPQVDPRP | 1.5
RRIRMRPPRLPRPRPRPAWKPRP | 0.14
RRIRLRPPRLPRPRPRPEVAPRP | 0.475
RRIRIRPPRLPRPRPRPGPHPRP | 0.0135
RRIRKRPPRLPRPRPRPEVSPRP | 0.219
RRIRTRPPRLPRPRPRPPKDPRP | -0.187
RRIRWRPPRLPRPRPRPHEVPRP | 0.169
RRIRVRPPRLPRPRPRPYTYPRP | 0.128
RRIRFRPPRLPRPRPRPWSEPRP | -0.173
RRIRPRPPRLPRPRPRPFKPPRP | -0.387
RRIRGRPPRLPRPRPRPHSSPRP | -0.144
RRIRDRPPRLPRPRPRPRQLPRP | 0.185
RRIRDRPPRLPRPRPRPWHPPRP | -0.0206
RRIRIRPPRLPRPRPRPTSIPRP | -0.182
RRIRARPPRLPRPRPRPLKFPRP | -0.38
RRIRPRPPRLPRPRPRPFQCPRP | -0.0376
RRIRIRPPRLPRPRPRPWMWPRP | 0.0832
RRIRVRPPRLPRPRPRPVYYPRP | -0.696
RRIRIRPPRLPRPRPRPLACPRP | -0.398
RRIRERPPRLPRPRPRPCHVPRP | -0.0775

* * *

Reported shrunken log2 fold change values are given for each entry in this list.
# System: Escherichia coli TOP10
# Measurement Notes: shrunken log2 fold change of peptide-encoding DNA abundance (4.5 h post-induction vs induction); higher = less antimicrobial activity (less host growth inhibition)
# Experimental Context: time post-induction: 4.5 h; library: site-saturation at positions 5, 18, 19, 20
Measurement Type: shrunken log2 fold change

Query Sequence | Reported Measurement
RRIRKRPPRLPRPRPRPMVYPRP | -0.0451
RRIRTRPPRLPRPRPRPQMRPRP | 0.472
RRIRNRPPRLPRPRPRPISIPRP | 0.0125
RRIRSRPPRLPRPRPRPAPQPRP | 0.461
RRIRCRPPRLPRPRPRPWFDPRP | -0.496
RRIRWRPPRLPRPRPRPQPGPRP | 0.221
RRIRNRPPRLPRPRPRPPNHPRP | 0.0878
RRIRIRPPRLPRPRPRPIAQPRP | -0.373
RRIRIRPPRLPRPRPRPNIDPRP | -0.619
RRIRKRPPRLPRPRPRPKVLPRP | 0.0605
RRIRDRPPRLPRPRPRPRKRPRP | 0.382
RRIRPRPPRLPRPRPRPVAMPRP | 0.0478
RRIRVRPPRLPRPRPRPTTTPRP | 0.1
RRIRWRPPRLPRPRPRPIVNPRP | -0.0307
RRIRPRPPRLPRPRPRPEWDPRP | 0.269
RRIRGRPPRLPRPRPRPDFEPRP | 0.988
RRIRQRPPRLPRPRPRPNTKPRP | -0.199
RRIRIRPPRLPRPRPRPQMPPRP | -0.662
RRIRARPPRLPRPRPRPLFSPRP | -0.124
RRIRCRPPRLPRPRPRPVVCPRP | 0.113
RRIRQRPPRLPRPRPRPNPPPRP | 0.0904
RRIRTRPPRLPRPRPRPFRSPRP | -0.144
RRIRERPPRLPRPRPRPIHFPRP | -0.00865
RRIRNRPPRLPRPRPRPLKSPRP | -0.258
RRIRIRPPRLPRPRPRPHENPRP | -0.581
RRIRSRPPRLPRPRPRPSNPPRP | -0.257
RRIRWRPPRLPRPRPRPPKMPRP | 0.172
RRIRSRPPRLPRPRPRPTNLPRP | -0.215
RRIRKRPPRLPRPRPRPNTGPRP | 0.382
RRIRNRPPRLPRPRPRPLDGPRP | -0.0308
RRIRRRPPRLPRPRPRPHQPPRP | 0.557
RRIRDRPPRLPRPRPRPWIHPRP | -0.0487
RRIRKRPPRLPRPRPRPDCIPRP | 0.75
RRIRHRPPRLPRPRPRPLTNPRP | 0.185
RRIRNRPPRLPRPRPRPMSEPRP | -0.0254
RRIRPRPPRLPRPRPRPKRGPRP | 0.484
RRIRYRPPRLPRPRPRPHSVPRP | -0.07
RRIRNRPPRLPRPRPRPVRMPRP | -0.132
RRIRTRPPRLPRPRPRPQQRPRP | -0.0699
RRIRERPPRLPRPRPRPLNQPRP | -0.547
RRIRFRPPRLPRPRPRPWFYPRP | -0.587
RRIRDRPPRLPRPRPRPKTIPRP | -0.00641
RRIRFRPPRLPRPRPRPPLKPRP | 0.266
RRIRMRPPRLPRPRPRPCEPPRP | 0.234
RRIRCRPPRLPRPRPRPRCGPRP | 0.191
RRIRYRPPRLPRPRPRPICVPRP | -0.293
RRIRKRPPRLPRPRPRPKGVPRP | 0.286
RRIRARPPRLPRPRPRPYERPRP | 0.0697
RRIRSRPPRLPRPRPRPGWDPRP | 0.444
RRIRGRPPRLPRPRPRPAPSPRP | 0.806
RRIRWRPPRLPRPRPRPKPVPRP | 0.006
RRIRQRPPRLPRPRPRPWCAPRP | 0.0231
RRIRLRPPRLPRPRPRPLACPRP | -0.454
RRIRYRPPRLPRPRPRPQTTPRP | -0.0405
RRIRDRPPRLPRPRPRPVQGPRP | -0.01
RRIRSRPPRLPRPRPRPKYKPRP | -0.422
RRIRQRPPRLPRPRPRPPVIPRP | -0.498
RRIRQRPPRLPRPRPRPQVMPRP | 0.095
RRIRWRPPRLPRPRPRPYVFPRP | -0.142
RRIRGRPPRLPRPRPRPIDPPRP | -0.0473
RRIRFRPPRLPRPRPRPCIYPRP | -0.191
RRIRHRPPRLPRPRPRPNHQPRP | -1.24
RRIRIRPPRLPRPRPRPLKQPRP | 0.0465

* * *

# Test system: Escherichia coli TOP10
# Measurement Notes: shrunken log2 fold change of peptide-encoding DNA abundance (4.5 h post-induction vs induction); higher = less antimicrobial activity (less host growth inhibition)
# Experimental Context: time post-induction: 4.5 h; library: site-saturation at positions 5, 18, 19, 20
Cut-off -0.03 on shrunken log2 fold change, inclusive. At or above means Fulfilled; below means Not fulfilled.

Query Sequence | Cat
RRIRMRPPRLPRPRPRPRWRPRP | Fulfilled
RRIRTRPPRLPRPRPRPMANPRP | Not fulfilled
RRIRSRPPRLPRPRPRPTMVPRP | Fulfilled
RRIRNRPPRLPRPRPRPALYPRP | Not fulfilled
RRIRGRPPRLPRPRPRPAWEPRP | Fulfilled
RRIRLRPPRLPRPRPRPLICPRP | Fulfilled
RRIRIRPPRLPRPRPRPEFCPRP | Fulfilled
RRIRQRPPRLPRPRPRPLFSPRP | Not fulfilled

* * *

# Tested on: Escherichia coli TOP10;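 note: peptides expressed intracellularly from a pBAD plasmid library in pooled LB shake-flask culture, induced with 0.3% L-arabinose, DNA abundance read by NGS, three biological replicates, DESeq2 with apeglm shrinkage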
# Measurement Notes: shrunken log2 fold change of peptide-encoding DNA abundance (4.5 h post-induction vs induction); higher = less antimicrobial activity (less host growth inhibition)
# Experimental Context: time post-induction: 4.5 h; library: site-saturation at positions 5, 18, 19, 20

Query Sequence | Target Of Assay | shrunken log2 fold change
RRIRDRPPRLPRPRPRPTQHPRP | Escherichia coli TOP10 | 0.396
RRIRMRPPRLPRPRPRPRIPPRP | Escherichia coli TOP10 | 0.199
RRIRWRPPRLPRPRPRPIDKPRP | Escherichia coli TOP10 | -0.105
RRIRGRPPRLPRPRPRPYSGPRP | Escherichia coli TOP10 | -0.0221
RRIRARPPRLPRPRPRPSVIPRP | Escherichia coli TOP10 | -0.0459
RRIRCRPPRLPRPRPRPLAKPRP | Escherichia coli TOP10 | 1.69
RRIRGRPPRLPRPRPRPHMTPRP | Escherichia coli TOP10 | 1.45
RRIRCRPPRLPRPRPRPVESPRP | Escherichia coli TOP10 | -0.0217
RRIRIRPPRLPRPRPRPVDYPRP | Escherichia coli TOP10 | -0.0672
RRIRHRPPRLPRPRPRPAKMPRP | Escherichia coli TOP10 | 0.0344
RRIRKRPPRLPRPRPRPGCTPRP | Escherichia coli TOP10 | 0.517
RRIRYRPPRLPRPRPRPRYFPRP | Escherichia coli TOP10 | -0.212
RRIRHRPPRLPRPRPRPSGHPRP | Escherichia coli TOP10 | -0.172
RRIRYRPPRLPRPRPRPCHRPRP | Escherichia coli TOP10 | -0.169
RRIRNRPPRLPRPRPRPQVRPRP | Escherichia coli TOP10 | 0.05
